Would you mind telling me the reported Ratio OD(Variant)/OD(WT) of each entry?
target: HRgpA-6H (Porphyromonas gingivalis) (UniProt P28784); assay: ELISA, coated HRgpA-6H

query: Any idea what Ratio OD(Variant)/OD(WT) was measured for KB001 mouse Fab VL N54Q (Fab, V domains shown) VH: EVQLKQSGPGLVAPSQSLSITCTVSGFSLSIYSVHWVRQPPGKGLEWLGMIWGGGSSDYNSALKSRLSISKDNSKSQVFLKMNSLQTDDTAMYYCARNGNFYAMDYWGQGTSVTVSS VL: QIVLTQSPAIMSASLGERVTMTCTASSSVSSSFLHWYQQKPGSSPQLWIYSTSQLASGVPARFSGSGSGTSYSLTISSMEAEDAATYYCHQYHHSPYIYTFGGGTKLEIK ?
result: 1.11

query: # input binder: KB001 mouse Fab VH S30R (Fab, V domains shown) VH: EVQLKQSGPGLVAPSQSLSITCTVSGFSLRIYSVHWVRQPPGKGLEWLGMIWGGGSSDYNSALKSRLSISKDNSKSQVFLKMNSLQTDDTAMYYCARNGNFYAMDYWGQGTSVTVSS VL: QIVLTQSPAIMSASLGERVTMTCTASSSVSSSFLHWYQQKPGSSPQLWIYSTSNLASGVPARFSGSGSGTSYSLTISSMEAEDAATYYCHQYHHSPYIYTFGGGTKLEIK ; wanted: its Ratio OD(Variant)/OD(WT)
result: 0.953
